# assay_system: T1, ADI-26906 IgG
# T1 construct: anti-CD3 IgG
# T1 sequence (VH, as listed by the source limits assumed, chain 1 of 2): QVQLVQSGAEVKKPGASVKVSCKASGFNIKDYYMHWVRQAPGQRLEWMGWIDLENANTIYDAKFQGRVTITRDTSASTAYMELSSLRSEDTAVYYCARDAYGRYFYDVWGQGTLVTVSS
# T1 sequence (VL, as listed by the source limits assumed, chain 2 of 2): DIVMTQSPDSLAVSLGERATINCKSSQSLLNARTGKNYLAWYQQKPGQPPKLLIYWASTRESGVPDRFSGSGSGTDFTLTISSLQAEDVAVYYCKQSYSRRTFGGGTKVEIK
# test: SPR Carterra avidity, yeast anti-ID
Quick reference for Kd among some binders

binder: ADI-34138 (antibody, V domains shown, anti-ID IgG) VH: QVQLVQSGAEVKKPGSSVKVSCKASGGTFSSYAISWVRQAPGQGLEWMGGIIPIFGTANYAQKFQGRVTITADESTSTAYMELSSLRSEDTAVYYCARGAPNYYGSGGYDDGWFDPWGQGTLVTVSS VL: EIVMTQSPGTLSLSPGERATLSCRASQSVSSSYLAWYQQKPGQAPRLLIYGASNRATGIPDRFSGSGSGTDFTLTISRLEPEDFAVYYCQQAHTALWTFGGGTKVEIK
Kd, nM: 20
--
binder: ADI-30242 (antibody, V domains shown, anti-ID IgG) VH: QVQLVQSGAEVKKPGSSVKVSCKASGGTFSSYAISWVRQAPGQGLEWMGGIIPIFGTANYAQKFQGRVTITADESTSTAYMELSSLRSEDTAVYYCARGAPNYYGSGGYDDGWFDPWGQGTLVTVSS VL: EIVLTQSPGTLSLSPGERATLSCRASQSVSSSYLAWYQQKPGQAPRLLIYGASSRATGIPDRFSGSGSGTDFTLTISRLEPEDFAVYYCQQFGRDPTFGGGTKVEIK
Kd, nM: 5.9
--
binder: ADI-34132 (antibody, V domains shown, anti-ID IgG) VH: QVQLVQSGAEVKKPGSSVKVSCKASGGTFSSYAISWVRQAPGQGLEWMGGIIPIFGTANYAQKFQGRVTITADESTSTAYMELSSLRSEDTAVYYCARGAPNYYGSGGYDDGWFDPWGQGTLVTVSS VL: DIQLTQSPSSLSASVGDRVTITCRASQSISSYLNWYQQKPGKAPKLLIYAASNLQSGVPSRFSGSGSGTDFTLTISSLQPEDFATYYCQQTLHTPITFGGGTKVEIK
Kd, nM: 0.16
--
binder: ADI-34137 (antibody, V domains shown, anti-ID IgG) VH: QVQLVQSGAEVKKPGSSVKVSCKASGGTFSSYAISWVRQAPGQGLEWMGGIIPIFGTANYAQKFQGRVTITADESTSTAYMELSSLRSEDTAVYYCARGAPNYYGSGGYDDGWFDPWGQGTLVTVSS VL: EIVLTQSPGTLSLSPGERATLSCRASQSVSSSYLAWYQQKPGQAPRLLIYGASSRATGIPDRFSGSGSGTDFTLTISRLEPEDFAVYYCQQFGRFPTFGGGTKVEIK
Kd, nM: 0.33
